Target: PPAR γ (Homo sapiens, UniProt P37231)
Construct: Following the challenge of the preadipocytes, cells may be lysed with lysis buffer; endogenous in cells; host or cells: preadipocytes
Sequence (P37231 whole entry): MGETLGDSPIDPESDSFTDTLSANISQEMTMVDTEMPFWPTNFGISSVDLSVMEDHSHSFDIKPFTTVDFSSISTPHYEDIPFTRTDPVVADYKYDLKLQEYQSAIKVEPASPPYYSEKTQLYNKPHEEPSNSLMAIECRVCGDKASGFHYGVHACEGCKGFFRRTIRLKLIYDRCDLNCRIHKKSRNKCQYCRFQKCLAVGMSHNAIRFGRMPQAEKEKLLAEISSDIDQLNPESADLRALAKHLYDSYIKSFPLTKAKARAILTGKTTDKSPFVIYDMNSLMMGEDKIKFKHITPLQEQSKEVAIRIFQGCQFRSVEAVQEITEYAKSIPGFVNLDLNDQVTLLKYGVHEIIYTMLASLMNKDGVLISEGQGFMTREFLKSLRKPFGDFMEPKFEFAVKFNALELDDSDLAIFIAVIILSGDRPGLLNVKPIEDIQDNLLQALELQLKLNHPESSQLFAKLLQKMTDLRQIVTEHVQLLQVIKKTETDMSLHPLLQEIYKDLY
Assay: aP2 Assay for Agonist (induction of aP2 mRNA production); note: test concentration or dose not given here
Format: cell-based
Conditions: Table 1; fold increase over vehicle in induction of aP2 mRNA production
reported.endpoint: Agonist Intrinsic Activity
Just the number, please, no unit after it.

What measured Agonist Intrinsic Activity goes with O=C(O)Cc1ccccc1OCCC1Oc2ccccc2N(Cc2ccc(C(F)(F)F)cc2)C1=O (stereo not shown) ?
38.7

What measured Agonist Intrinsic Activity goes with CS(=O)(=O)NCCCCCCN1C(=O)C(CCOc2ccccc2CC(=O)O)Oc2ccccc21 (stereo not shown) ?
12.96

What measured Agonist Intrinsic Activity goes with O=C(O)Cc1ccccc1OCCC1Oc2ccccc2N(CCCCCCF)C1=O (stereo not shown) [Compound 91] ?
64.9

What measured Agonist Intrinsic Activity goes with CCCSCCN1C(=O)C(CCOc2ccccc2C(F)(F)F)Oc2ccccc21 (stereo not shown) ?
1.9

What measured Agonist Intrinsic Activity goes with NC(=O)CCCCN1C(=O)C(CCOc2ccccc2CC(=O)O)Oc2ccccc21 (stereo not shown) ?
1.5

What measured Agonist Intrinsic Activity goes with CCCOCCN1C(=O)C(CCOc2ccccc2C(F)(F)F)Oc2ccccc21 (stereo not shown) ?
1.2

What measured Agonist Intrinsic Activity goes with COC(=O)c1ccccc1OCCC1Oc2ccccc2N(Cc2ccccc2)C1=O (stereo not shown) ?
1.0

What measured Agonist Intrinsic Activity goes with O=C(O)Cc1ccccc1OCCC1Oc2ccccc2N(CCCCCCO)C1=O (stereo not shown) ?
36.9

What measured Agonist Intrinsic Activity goes with COC(=O)c1ccccc1OCCC1Oc2ccccc2N(Cc2cccc(C(F)(F)F)c2)C1=O (stereo not shown) ?
0.9

What measured Agonist Intrinsic Activity goes with O=C(O)Cc1ccccc1OCCC1Oc2ccccc2N(CCO)C1=O (stereo not shown) [Compound 25] ?
3.5

What measured Agonist Intrinsic Activity goes with CC(F)(F)CCCCN1C(=O)C(CCOc2ccccc2CC(=O)O)Oc2ccccc21 (stereo not shown) [Compound 87] ?
37.9

What measured Agonist Intrinsic Activity goes with COC(=O)Cc1ccccc1OCCC1Oc2ccccc2N(Cc2ccc(C(F)(F)F)cc2)C1=O (stereo not shown) ?
1.2

What measured Agonist Intrinsic Activity goes with CCCCCCCCCCN1C(=O)C(CCOc2ccccc2CC(=O)O)Oc2ccccc21 (stereo not shown) ?
9.9

What measured Agonist Intrinsic Activity goes with CCCCCCN1C(=O)C(CCOc2ccccc2C(=O)C(=O)O)Oc2ccccc21 (stereo not shown) ?
2.6

What measured Agonist Intrinsic Activity goes with CC(C)(C#N)CCCCN1C(=O)C(CCOc2ccccc2CC(=O)O)Oc2ccccc21 (stereo not shown) ?
26.5

What measured Agonist Intrinsic Activity goes with CC(F)(F)CCCCN1C(=O)C(CCOc2ccccc2CC(=O)O)Oc2ccccc21 (single isomer, unassigned) [Compound 88] ?
45.4

What measured Agonist Intrinsic Activity goes with CCCCCCCCCN1C(=O)C(CCOc2ccccc2CC(=O)O)Oc2ccccc21 (stereo not shown) ?
7.1

What measured Agonist Intrinsic Activity goes with COC(=O)Cc1ccccc1OCCC1Oc2ccccc2N(CCOC(C)=O)C1=O (stereo not shown) [Compound 24] ?
1.3

What measured Agonist Intrinsic Activity goes with CCOCCCN1C(=O)C(CCOc2ccccc2CC(=O)O)Oc2ccccc21 (stereo not shown) ?
40.9

What measured Agonist Intrinsic Activity goes with COC(=O)CCc1cccc(OCCC2Oc3ccccc3N(Cc3cccc(C(F)(F)F)c3)C2=O)c1 (stereo not shown) ?
0.8

What measured Agonist Intrinsic Activity goes with COC(=O)CCCc1ccccc1OCCC1Oc2ccccc2N(Cc2cccc(C(F)(F)F)c2)C1=O (stereo not shown) ?
0.9

What measured Agonist Intrinsic Activity goes with CC(C)(CCCCN1C(=O)C(CCOc2ccccc2CC(=O)O)Oc2ccccc21)C(=O)O (stereo not shown) ?
4.1

What measured Agonist Intrinsic Activity goes with CCCCCCN1C(=O)C(CCOc2ccccc2CP(=O)(O)O)Oc2ccccc21 (stereo not shown) ?
7.2

What measured Agonist Intrinsic Activity goes with O=C(O)Cc1ccccc1OCCC1Oc2ccccc2N(CCO)C1=O (stereo not shown) [Compound 48] ?
8

What measured Agonist Intrinsic Activity goes with O=C1C(CCOc2ccccc2C(F)(F)F)Oc2ccccc2N1Cc1ccc(Cl)c(Cl)c1 (stereo not shown) ?
3.3

What measured Agonist Intrinsic Activity goes with CCCCCCN1C(=O)C(CCOc2ccc(SC(C)(C)C(=O)O)cc2)Oc2ccccc21 (stereo not shown) ?
16.13

What measured Agonist Intrinsic Activity goes with CC(CCN1C(=O)C(CCOc2ccccc2CC(=O)O)Oc2ccccc21)CC(C)(C)C (stereo not shown) ?
28.7

What measured Agonist Intrinsic Activity goes with O=C(O)Cc1ccccc1OCCC1Oc2ccccc2N(CCCCCF)C1=O (stereo not shown) ?
29.1

What measured Agonist Intrinsic Activity goes with O=C([O-])CCc1ccccc1OCCC1Oc2ccccc2N(Cc2cccc(C(F)(F)F)c2)C1=O.[Na+] (stereo not shown) ?
5.6

What measured Agonist Intrinsic Activity goes with Cc1cccc(CN2C(=O)C(CCOc3ccccc3C(F)(F)F)Oc3ccccc32)c1 (stereo not shown) ?
1.2

What measured Agonist Intrinsic Activity goes with O=C(O)Cc1ccccc1OCCC1Oc2ccccc2N(CCCCCCCF)C1=O (stereo not shown) ?
64.5

What measured Agonist Intrinsic Activity goes with O=C(O)Cc1ccccc1OCCC1Oc2ccccc2N(CCCC2CCCC2)C1=O (stereo not shown) ?
57.9

What measured Agonist Intrinsic Activity goes with C#CCN1C(=O)C(CCOc2ccccc2CC(=O)OC)Oc2ccccc21 (stereo not shown) ?
5.7

What measured Agonist Intrinsic Activity goes with O=C([O-])c1ccccc1OCCC1Oc2ccccc2N(Cc2cccc(C(F)(F)F)c2)C1=O.[Na+] (stereo not shown) ?
3.1
